experiment: Cell viability of U937 cells in cytokine production test; format: cell-based; conditions: human

molecule: CC(=O)CCCCn1c(=O)c2c(ncn2C)n(C)c1=O [Pentoxifylline, pentoxifylline]
viability at 20 h, 20 μg/ml (%): 106

====

experiment: Cytotoxicity on U937 cells; type: cell-based; details: human
metric: IC50 (µg/mL)

smiles_data: CC(=O)CCCCn1c(=O)c2c(ncn2C)n(C)c1=O
metric: IC50
value_reported: 170
